Value source: patent US20170027893A1

# System Name: LPAAT-β (Homo sapiens)
# Sequence (O15120 24-278): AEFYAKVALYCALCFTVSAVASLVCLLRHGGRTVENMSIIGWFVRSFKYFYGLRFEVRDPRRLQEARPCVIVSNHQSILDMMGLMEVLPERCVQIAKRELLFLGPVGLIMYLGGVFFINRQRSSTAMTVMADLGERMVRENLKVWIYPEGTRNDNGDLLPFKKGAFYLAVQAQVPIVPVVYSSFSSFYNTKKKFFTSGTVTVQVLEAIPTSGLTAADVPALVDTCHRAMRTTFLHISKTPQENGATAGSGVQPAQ
# Protocol: DTNB (Ellman's reagent) 96-well plate screening assay of LPAAT-β enzymatic activity
# Format: biochemical
# Set-up: The assay utilizes full-length, recombinant, baculovirus-produced LPAAT-β; made in house
# Settings: read-out: IC50 (μM) (DTNB assay) (converted)
The label true (1) is reserved for IC50 strictly under 0.7 µM; false (0) covers values equal to or above it.

>>> label_class("C=CCc1cc(Cl)cc(C(C)=NNC(N)=S)c1O [Compound 19a]")
"true (1)"
>>> label_class("CCCCCc1cccc(C=NNC(N)=S)c1O")
"false (0)"
>>> label_class("C=CCc1cc(Cl)cc(C(C)=NNC(N)=S)c1O [Compound 15d]")
"true (1)"
>>> label_class("NC(=S)NN=Cc1cccc(Cl)c1O")
"false (0)"
>>> label_class("C=CCc1cccc(C=NNC(=S)NC)c1O [Compound 10a]")
"false (0)"
>>> label_class("NC(=S)N/N=C/c1ccc2ccccc2c1O")
"false (0)"
>>> label_class("CCCc1cccc(C=NNC(=S)NC(=O)c2ccccc2)c1O [Compound 10c]")
"false (0)"
>>> label_class("CCCCCCCc1cccc(C=NNC(N)=S)c1O")
"false (0)"
>>> label_class("CCCc1cccc(C(C)=NNC(N)=S)c1O [Compound 15a]")
"true (1)"
>>> label_class("NC(=S)NN=Cc1cccc(F)c1O")
"false (0)"
>>> label_class("NC(=S)NN=Cc1cccc(-c2ccccc2)c1O")
"false (0)"

###

Listed here: items and their measured log10 of IC50.
# System Name: LPAAT-β (Homo sapiens, UniProt O15120)
# Protocol: DTNB (Ellman's reagent) 96-well plate screening assay of LPAAT-β enzymatic activity
# Type: biochemical
# Set-up: The assay utilizes full-length, recombinant, baculovirus-produced LPAAT-β; made in house
# Settings: read-out: IC50 (μM) (DTNB assay) (converted)
Endpoint Label: log10 of IC50 (log10 of the value in µM)

>>> experimental_value("NC(=S)NN=Cc1cccc(C(F)(F)F)c1O")
0.85
>>> experimental_value("C=CCc1cccc(/C=N/NC(N)=S)c1O")
-0.07
>>> experimental_value("C=CCc1cc(-c2ccc(C)c(Cl)c2)cc(C(C)=NNC(N)=S)c1O [Compound 19w]")
-0.17
>>> experimental_value("C=CCc1cc(-c2ccc(Cl)cc2)cc(C(C)=NNC(N)=S)c1O [Compound 19p]")
-0.49
>>> experimental_value("C=CCc1cc(-c2ccc(C#N)cc2)cc(C(C)=NNC(N)=S)c1O [Compound 19u]")
-0.44

###

// reported IC50 per item
# System Name: LPAAT-β (Homo sapiens)
# Protocol: secondary thin layer chromatography (TLC) assay measuring fluorescent PA
# Format: biochemical
# Parameters: The assay utilizes full-length, recombinant, baculovirus-produced LPAAT-β; made in house
Endpoint Label: IC50 (µM)

>>> experimental_value("C=CCc1cc(-c2ccc(C)c(Cl)c2)cc(C(C)=NNC(N)=S)c1O [Compound 19w]")
9.2
>>> experimental_value("C=CCc1cc(CCCCCC)cc(C(C)=NNC(N)=S)c1O [Compound 19k]")
3.2
>>> experimental_value("C=CCc1cc(-c2ccc(Cl)cc2Cl)cc(C(C)=NNC(N)=S)c1O [Compound 19r]")
2.1
>>> experimental_value("C=CCc1cc(Cl)cc(C(C)=NNC(N)=S)c1O [Compound 19a]")
3.3
>>> experimental_value("C=CCc1cc(CCCC)cc(C(C)=NNC(N)=S)c1O [Compound 19h]")
1.4
>>> experimental_value("C=CCc1cc(Cl)cc(C(C)=NNC(N)=S)c1O [Compound 15d]")
32
>>> experimental_value("C=CCc1cccc(/C=N/NC(N)=S)c1O")
33
>>> experimental_value("CCCc1cccc(C(C)=NNC(N)=S)c1O [Compound 15a]")
35
>>> experimental_value("C=CCc1cc(-c2ccccc2)cc(C(C)=NNC(N)=S)c1O [Compound 19n]")
5.7
>>> experimental_value("CCCc1cccc(C=NNC(N)=S)c1O")
19
>>> experimental_value("CC(C)c1cccc(C=NNC(N)=S)c1O")
30
>>> experimental_value("C=CCc1cc(-c2ccc(Br)cc2)cc(C(C)=NNC(N)=S)c1O [Compound 19o]")
4.2

###

# System Name: LPAAT-β (Homo sapiens)
# Protocol: DTNB (Ellman's reagent) 96-well plate screening assay of LPAAT-β enzymatic activity
# Format: biochemical
# Set-up: The assay utilizes full-length, recombinant, baculovirus-produced LPAAT-β; made in house
# Settings: read-out: IC50 (μM) (DTNB assay) (converted)
# Protocol: Screening with a modified screening assay in 96-well plate format for LPAAT-β enzymatic activity was performed as reported by Aguado and Campbell (Aguado et al., Characterization of a human lysophosphatidic acid acyltransferase that is encoded by a gene located in the class III region of the human major histocompatibility complex. J. Biol. Chem. 1998, 273, 4096-105). […]
IC50 vs 0.6 µM: less than gives YES; not less than gives NO.

>>> label_class("C=CCc1cc(-c2cc(Cl)cc(Cl)c2)cc(C(C)=NNC(N)=S)c1O [Compound 19t]")
"YES"
>>> label_class("Cc1cccc(C=NNC(N)=S)c1O [Compound 6h]")
"NO"
>>> label_class("CCc1cccc(C=NNC(N)=S)c1O [Compound 6j]")
"NO"
>>> label_class("C=CCc1cc(C(C)=O)cc(C(C)=NNC(N)=S)c1O [Compound 19l]")
"NO"
>>> label_class("C=CCc1cc(-c2ccc(Br)cc2)cc(C(C)=NNC(N)=S)c1O [Compound 19o]")
"YES"

###

Measured IC50, listed per entry for reference.
# System Name: LPAAT-β (Homo sapiens, UniProt O15120)
# Protocol: DTNB (Ellman's reagent) 96-well plate screening assay of LPAAT-β enzymatic activity
# Format: biochemical
# Parameters: The assay utilizes full-length, recombinant, baculovirus-produced LPAAT-β; made in house
# Settings: read-out: IC50 (μM) (DTNB assay) (converted)
Endpoint Label: IC50

>>> experimental_value("CCCc1cccc(C=NNC(=S)NC)c1O [Compound 10b]")
"14 µM"
>>> experimental_value("NC(=S)NN=Cc1cccc(C2CCCCC2)c1O [Compound 6n]")
"> 100 µM"
>>> experimental_value("NC(=S)NN=Cc1cccc(O)c1O [Compound 6c]")
"> 100 µM"
>>> experimental_value("C=CCc1cc(-c2cccc(C#N)c2)cc(C(C)=NNC(N)=S)c1O [Compound 19v]")
"0.28 µM"
